FYI, the data here is from the supplement of paper PMC11451515.

# System: P12-Ichikawa
# assaySummary: cell viability relative to DMSO control; higher = less cytotoxic
# testParameters: RPMI 5 mM glucose + 10% dialyzed FBS; 48 h; 0.0211 µM
Entries and their measured cell viability follow.
Report only the number, with the unit % understood.

May I ask what cell viability has been recorded for C[C@H]1CCC/C=C/C2C[C@H](O)C[C@H]2[C@H](O)/C=C/C(=O)O1 (some centres undefined) ?
62.7

Let us move to another entry and its cell viability.
May I ask what cell viability has been recorded for CN(C(=O)c1ccc(F)cc1C(F)(F)F)C1CCN(c2nnc(-c3ccnn3C)c3ccccc23)CC1 ?
78.5

* * *

# System: NOMO1
# assaySummary: cell viability relative to DMSO control; higher = less cytotoxic
# testParameters: RPMI 5 mM glucose + 10% FBS; 48 h; 0.0211 µM
property: cell viability (%)
Report only the number, with the unit % understood.

Solved cases (5 shown):
May I ask what cell viability has been recorded for Cn1cc(-c2ccc3ncc(Cc4ccc5ncccc5c4)n3n2)cn1 ?
96.4

Now consider CC1=C(/C=C/C(C)=C/C=C/C(C)=C/C(=O)Nc2ccc(O)cc2)C(C)(C)CCC1 and answer again.
96.5

Now consider COc1cc2c(NC3CCN(C(C)C)CC3)nc(C3CCCCC3)nc2cc1OCCCN1CCCC1 and answer again.
129

Now consider CN[C@@H](C)C(=O)N[C@H]1CCCC[C@H]2CC[C@@H](C(=O)N[C@@H](c3ccccc3)c3cn(CCCCc4ccc(CCCCn5cc([C@@H](NC(=O)[C@@H]6CC[C@@H]7CCCC[C@H](NC(=O)[C@H](C)NC)C(=O)N76)c6ccccc6)nn5)cc4)nn3)N2C1=O and answer again.
87.9

Now consider Cl.Cl.Fc1ccc(C(OCCN2CCN(CCCc3ccccc3)CC2)c2ccc(F)cc2)cc1 and answer again.
119

---
May I ask what cell viability has been recorded for COc1ccc(CCC(=O)Nc2nc3ccc(Cl)cc3s2)cc1OC ?
105

Now consider C[Se]CCC(N)C(=O)O (centres undefined) and answer again.
84.4
